- assay.details: AUC (0 to 24 hrs) in alveolar cell of lung transplant recipient invasive aspergillosis patient plasma at 150 mg, iv administered as single dose
- Assay type: ADME, organism-based, Pneumocyte
- Set-up: time < 24 hr, dose 150 mg, route intravenous
- condition.set: human, alveolar cells
Numbered stars: 1 amine (or outer) side, 2 acyl side, 3 side chain; on linkers, the order of the positions; unused ones are H or OH. Bridge positions count the residues as written; N and C are the ends. Square brackets hold non-standard residues; d marks the D form. Peptide text beside a SMILES is read from it. * marks the point of attachment. hTyr(3S-OH,4S-OH,3'-OSO3H) = N[C@H](C(=O)O)[C@H](O)[C@@H](O)c1ccc(O)c(OS(=O)(=O)O)c1; Orn(4R-OH,5R-OH) = O=C([C@H](C[C@@H](O)[C@@H](O)N[*:3])N[*:1])[*:2]; Pro(3S-OH,4S-Me) = C[C@H]1CN[C@H](C(=O)O)[C@H]1O; X1 = CCCCCOc1ccc(-c2cc(-c3ccc(C(=O)*)cc3)no2)cc1; Gln(3R-OH) = NC(=O)C[C@@H](O)[C@H](N)C(=O)O; Hyp = O=C(O)[C@@H]1C[C@@H](O)CN1
metric: AUC(0-t) at 24 h (µg·h/mL)

INSERT INTO results (compound, metric, measurement_units, numeric_result) VALUES
  ('CCCCCOc1ccc(-c2cc(-c3ccc(C(=O)N[C@H]4C[C@@H](O)[C@@H](O)NC(=O)[C@@H]5[C@@H](O)[C@@H](C)CN5C(=O)[C@H]([C@H](O)CC(N)=O)NC(=O)[C@H]([C@H](O)[C@@H](O)c5ccc(O)c(OS(=O)(=O)O)c5)NC(=O)[C@@H]5C[C@@H](O)CN5C(=O)[C@H]([C@@H](C)O)NC4=O)cc3)no2)cc1 [MICAFUNGIN] (X1-[Orn(4R-OH,5R-OH)]T[Hyp][hTyr(3S-OH,4S-OH,3''-OSO3H)][Gln(3R-OH)][Pro(3S-OH,4S-Me)]; lactam 1-C)', 'AUC(0-t) at 24 h', 'µg·h/mL', 208);
